# ASSAY_TARGET: Cu,Zn-SOD (Cu,Zn-superoxide dismutase) (Bos taurus)
# Construct: gene SOD1
# METHOD: SOD kit (xanthine/xanthine oxidase, WST-1 formazan at […] nm) after […] h pre-incubation with chelator
# Format: biochemical
pIC50: −log10 of the molar value.
QUANTITY: pIC50

Exam item: Look up pIC50: [S]=[Mo](=[S])([SH])[SH] [bcTTM, Bis-choline-tetrathiomolybdate]
Marked response: > 6.70

###

# ASSAY_TARGET: Cu,Zn-SOD (Cu,Zn-superoxide dismutase) (Bos taurus, UniProt P00442)
# Construct: gene SOD1
# Sequence (P00442 2-152): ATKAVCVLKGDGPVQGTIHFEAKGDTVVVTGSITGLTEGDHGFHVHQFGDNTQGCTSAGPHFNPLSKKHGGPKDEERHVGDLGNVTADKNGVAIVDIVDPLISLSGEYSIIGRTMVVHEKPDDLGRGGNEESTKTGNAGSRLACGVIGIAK
# METHOD: SOD kit (xanthine/xanthine oxidase, WST-1 formazan at […] nm) after […] h pre-incubation with chelator
# Assay type: biochemical
# RUN_CONDITIONS: read-out: IC50
pIC50: −log10 of the molar value.
QUANTITY: pIC50

Exam item: Look up pIC50: CC(C)(S)[C@@H](N)C(=O)O [DPA, 3-mercapto-D-valine]
Marked response: 4.00 to 4.30

Origin of measurements: paper PMC12473319
